Tested on: ISC-enriched organoids
protocol: Primary screen, 384-well 2.5-D organoid differentiation (ENR+CD, 6 days, Target Selective Inhibitor Library, vs whole-plate median): ATP (CellTiter-Glo 3D, CTG)
condition notes: Dose 0.08 uM; primary screen, FC vs plate median

{"compound": "COc1ccc(COc2ccc(Cc3cnc(N)nc3N)cc2OC)cc1", "target entity": "ISC-enriched organoids", "Dose.FC.CTG, log 2 fold change": "−0.042"}
{"compound": "O=C(/C=C\\n1cnc(-c2cc(C(F)(F)F)cc(C(F)(F)F)c2)n1)N1CC(F)(F)C1", "target entity": "ISC-enriched organoids", "Dose.FC.CTG, log 2 fold change": 0.167}
{"compound": "O=C1[C@H](Cc2ccc(O)cc2)N2C(=O)CCN(C(=O)NCc3ccccc3)[C@H]2CN1Cc1cccc2ccccc12", "target entity": "ISC-enriched organoids", "Dose.FC.CTG, log 2 fold change": 0.104}
{"compound": "CC(=O)c1c(C)c2cnc(Nc3ccc(N4CCNCC4)cn3)nc2n(C2CCCC2)c1=O.Cl [Palbociclib (PD-0332991) HCl]", "target entity": "ISC-enriched organoids", "Dose.FC.CTG, log 2 fold change": 0.169}
{"compound": "CN1C(=O)C(Cc2c[nH]c3ccccc23)NC1=S (stereo not drawn)", "target entity": "ISC-enriched organoids", "Dose.FC.CTG, log 2 fold change": 0.102}
{"compound": "C[C@@H](Oc1cc(-n2cnc3ccc(CN4CCN(C)CC4)cc32)sc1C(N)=O)c1ccccc1C(F)(F)F", "target entity": "ISC-enriched organoids", "Dose.FC.CTG, log 2 fold change": 0.160}

---

System: ISC-enriched organoids
protocol: Primary screen, 384-well 2.5-D organoid differentiation (ENR+CD, 6 days): carbachol-induced lysozyme secretion (LYZ.S)
Type: cell-based, murine
condition notes: strictly standardized mean difference; primary screen; 3rd of the 4 dose lines of the treatment (dose not given)
Where a name gives a salt, the structure may show the parent alone.
assay metric: SSMD.LYZ.S

{"compound": "Cc1ccccc1C(=O)Nc1ccc(C(=O)N2CCCC(N(C)C)c3ccccc32)cc1 (stereo not shown) [Mozavaptan]", "endpoint result": 0.775}
{"compound": "COc1cc(-n2c(=S)[nH]c3ccccc3c2=O)c(Cl)cc1Cl [Mdivi-1]", "endpoint result": "−0.196"}
{"compound": "COc1cc(-c2ncn(/C=C\\C(=O)OC(C)C)n2)cc(C(F)(F)F)c1 [KPT-185]", "endpoint result": "−1.455"}
{"compound": "CCOC(=O)N1CCC(=C2c3ccc(Cl)cc3CCc3cccnc32)CC1 [Loratadine]", "endpoint result": "−0.811"}
{"compound": "CC[C@H](C)C(=O)O[C@H]1C[C@@H](C)C=C2C=C[C@H](C)[C@H](CC[C@@H]3C[C@@H](O)CC(=O)O3)[C@H]21 [Lovastatin]", "endpoint result": "−1.424"}
{"compound": "Cc1cnc(NC(=O)Nc2cc(Br)c(C)cc2OC[C@@H]2CNCCO2)cn1 [LY2603618]", "endpoint result": "−1.421"}
{"compound": "Cc1ccc(C(=O)N(CCCN)[C@@H](c2nc3cc(Cl)ccc3c(=O)n2Cc2ccccc2)C(C)C)cc1 [Ispinesib (SB-715992)]", "endpoint result": "−1.657"}
{"compound": "C[C@H](NC(=O)[C@@H](O)c1cc(F)cc(F)c1)C(=O)N[C@@H]1C(=O)N(C)c2ccccc2-c2ccccc21 [LY411575]", "endpoint result": "−0.596"}
{"compound": "CN(Cc1cnc2nc(N)nc(N)c2n1)c1ccc(C(=O)N[C@@H](CCC(=O)O)C(=O)O)cc1 [Methotrexate]", "endpoint result": "−0.866"}
{"compound": "Oc1ccc2ccccc2c1SSc1c(O)ccc2ccccc12 [IPA-3]", "endpoint result": 0.324}
{"compound": "COc1ccc(CNCc2cccc3ccccc23)cc1.Cl [ML133 HCl]", "endpoint result": 0.368}
{"compound": "Cc1ccc(NCCCc2ccccc2)c(N)c1 [JSH-23]", "endpoint result": 0.030}
{"compound": "CCC(CC)(NC(=O)C(C)C)C(=O)N[C@@H](CCCN=C(N)N)C(=O)NC1(C(=O)NC(c2ccc(F)cc2)c2ccc(F)cc2)CCCC1 [MM-102]", "endpoint result": "−0.218"}
{"compound": "c1cc(-c2cnn3cc(-c4ccc(N5CCNCC5)cc4)cnc23)c2cccnc2c1 [LDN-212854]", "endpoint result": "−1.525"}
{"compound": "CCc1c2c(nc3ccc(OC(=O)N4CCC(N5CCCCC5)CC4)cc13)-c1cc3c(c(=O)n1C2)COC(=O)[C@]3(O)CC [Irinotecan HCl Trihydrate]", "endpoint result": "−1.550"}
{"compound": "Cl.Cl.O=S(=O)(NCCNC/C=C/c1ccc(Br)cc1)c1cccc2cnccc12 [H 89 2HCl]", "endpoint result": 0.329}
{"compound": "O=C(O)CNC(=O)c1c(O)c2ccccc2n(Cc2ccccc2)c1=O [IOX2]", "endpoint result": 0.006}
{"compound": "O=c1cc(-c2cccc3c2Sc2ccccc2S3)oc(N2CCOCC2)c1 [KU-55933 (ATM Kinase Inhibitor)]", "endpoint result": 1.246}
{"compound": "Clc1ccc(N/N=C(\\c2ccccc2)c2ccccn2)nc1 [JIB-04]", "endpoint result": "−0.339"}
{"compound": "C[C@@H]1CN(CC(=O)Nc2ccc3c(c2)Cc2cccc(-c4cc(=O)cc(N5CCOCC5)o4)c2S3)C[C@H](C)O1 [KU-60019]", "endpoint result": "−0.261"}
{"compound": "O=C(c1cn(Cc2cncn2Cc2ccc(Br)cc2)cc1-c1cccc2ccccc12)N1CCOCC1 [LB42708]", "endpoint result": "−0.965"}
{"compound": "CCc1c2c(nc3ccc(OC(=O)N4CCC(N5CCCCC5)CC4)cc13)-c1cc3c(c(=O)n1C2)COC(=O)[C@]3(O)CC [Irinotecan]", "endpoint result": "−1.400"}
